# system: GST-tagged KRAS-G12D (2-169) (Homo sapiens, UniProt P01116, G12D)
# Construct: GST-tagged KRAS-G12D (2-169, Reaction Biology, MSC-11-539); purchased Reaction Biology MSC-11-539 (KRAS G12D); MSC-11-502 (SOS1cat)
# Sequence (P01116 2-169 isoform P01116-2 G12D): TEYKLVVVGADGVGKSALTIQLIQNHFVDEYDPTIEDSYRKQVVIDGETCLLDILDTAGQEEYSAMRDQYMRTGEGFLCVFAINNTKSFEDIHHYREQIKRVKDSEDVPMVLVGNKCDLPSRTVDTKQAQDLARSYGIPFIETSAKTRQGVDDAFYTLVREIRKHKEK
# method: Nucleotide exchange assay (NEA), SOS-mediated, HTRF, KRAS G12D
# Assay type: biochemical
# condition.label: Table 4; IC50 extracted at 30 min
# Description: This activity is tightly regulated by GTPase activating proteins (GAPs) and guanine nucleotide exchange factors (GEFs). […] Homogenous time resolved fluorescence (HTRF) was used to detect SOS-mediated binding of a fluorescent GTP analog, GTP-DY-647P1 (Jena Biosciences NU-820-647P1) to GST-tagged KRAS-G12D (2-169, Reaction Biology, MSC-11-539) or to GST-tagged KRAS-G12V (2-169, Reaction Biology, MSC-11-540). […]
pIC50: −log10 of the molar value.
What pIC50 was measured for each of the following?

Some compounds with known pIC50 results, for comparison:
>  <compound>
N#Cc1c(N2C[C@H]3CC[C@@H](C2)N3)nc(OCC2(c3ccn[nH]3)CC2)nc1N1CC2(CCc3sc(N)c(C#N)c32)C1

>  <measured.value>
> 8.00

$$$$
>  <compound>
CN(C)C(=O)c1nn2c(c1Cl)CN(c1nc(OC[C@@]34CCCN3C[C@H](F)C4)nc(N3CC4(CCc5sc6[nH]cnc(=O)c6c54)C3)c1C#N)CCC2

>  <measured.value>
4.70 to 6.00

$$$$
>  <compound>
CO[C@H]1CN(CC2(COc3nc(N4C[C@H]5CC[C@@H](C4)N5)c(C#N)c(N4CC5(CCc6sc(N)c(C#N)c65)C4)n3)CC2)C[C@@H]1F

>  <measured.value>
> 8.00

$$$$

Count: 7. Required value per item: pIC50.
1. Cc1noc(-c2nn3c(c2Cl)CN(c2nc(OC[C@@]45CCCN4C[C@H](F)C5)nc(N4CC5(CCc6sc(N)c(C#N)c65)C4)c2C#N)CCC3)n1
2. CN(C)C1(COc2nc(N3C[C@H]4CC[C@@H](C3)N4)c(C#N)c(N3CC4(CCc5sc(N)c(C#N)c54)C3)n2)CC1
3. CN(C)C(=O)c1nn2c(c1Cl)CN(c1nc(OC[C@@]34CCCN3C[C@H](F)C4)nc(N3CC4(C3)c3ccccc3CCC4(F)F)c1C#N)CCC2
4. CN1CCC[C@H]1COc1nc(N2C[C@H]3CC[C@@H](C2)N3)c(C#N)c(N2CC3(CCc4sc(N)c(C#N)c43)C2)n1
5. N#Cc1c(N2CCCn3nc(-c4ccccn4)c(Cl)c3C2)nc(OCC2(CN3CCOCC3)CC2)nc1N1CC2(CCc3sc(N)c(C#N)c32)C1
6. N#Cc1c(N2C[C@H]3CC[C@@H](C2)N3)nc(OCC2(CN3C[C@@H]4C[C@H]3CO4)CC2)nc1N1CC2(CCc3sc(N)c(C#N)c32)C1
7. N#Cc1c(N2C[C@H]3CC[C@@H](C2)N3)nc(OCC2(CN3CCOCC3)CC2)nc1N1CC2(CCCCc3sc(N)c(C#N)c32)C1

1: > 8.00; 2: > 8.00; 3: 4.70 to 6.00; 4: > 8.00; 5: > 8.00; 6: > 8.00; 7: > 8.00

Hello, I would appreciate it if you could give pIC50 for each entry below.
1. C[C@@H]1COCCN1CC1(COc2nc(N3C[C@H]4CC[C@@H](C3)N4)c(C#N)c(N3CC4(CCc5sc(N)c(C#N)c54)C3)n2)CC1
2. CN(C)C(=O)c1nn2c(c1Cl)CN(c1nc(OCC34CCCN3CCC4)nc(N3CC4(CCc5sc(N)c(C#N)c54)C3)c1C#N)CCC2
3. N#Cc1c(N2C[C@H]3CC[C@@H](C2)N3)nc(OCC2(CN3CCOCC3)CC2)nc1N1CC2(CCc3sc4[nH]cnc(=O)c4c32)C1
4. Cc1noc(-c2cc3n(n2)CCCN(c2nc(OC[C@@]45CCCN4C[C@H](F)C5)nc(N4CC5(CCc6sc(N)c(C#N)c65)C4)c2C#N)C3)n1
5. CN(C)C(=O)c1nn2c(c1Cl)CN(c1nc(OC[C@@]34CCCN3C[C@H](F)C4)nc(N3CC4(CCCc5sc(N)c(C#N)c54)C3)c1C#N)CCC2

["6.00 to 7.00", "> 8.00", "6.00 to 7.00", "> 8.00", "> 8.00"]
